Biological target: kinases (kinome) (Homo sapiens, UniProt P53667)
Construct: determined in kinobeads assays with mass spectrometry detection of kinases as described previously; endogenous in cells
Sequence (P53667 whole entry): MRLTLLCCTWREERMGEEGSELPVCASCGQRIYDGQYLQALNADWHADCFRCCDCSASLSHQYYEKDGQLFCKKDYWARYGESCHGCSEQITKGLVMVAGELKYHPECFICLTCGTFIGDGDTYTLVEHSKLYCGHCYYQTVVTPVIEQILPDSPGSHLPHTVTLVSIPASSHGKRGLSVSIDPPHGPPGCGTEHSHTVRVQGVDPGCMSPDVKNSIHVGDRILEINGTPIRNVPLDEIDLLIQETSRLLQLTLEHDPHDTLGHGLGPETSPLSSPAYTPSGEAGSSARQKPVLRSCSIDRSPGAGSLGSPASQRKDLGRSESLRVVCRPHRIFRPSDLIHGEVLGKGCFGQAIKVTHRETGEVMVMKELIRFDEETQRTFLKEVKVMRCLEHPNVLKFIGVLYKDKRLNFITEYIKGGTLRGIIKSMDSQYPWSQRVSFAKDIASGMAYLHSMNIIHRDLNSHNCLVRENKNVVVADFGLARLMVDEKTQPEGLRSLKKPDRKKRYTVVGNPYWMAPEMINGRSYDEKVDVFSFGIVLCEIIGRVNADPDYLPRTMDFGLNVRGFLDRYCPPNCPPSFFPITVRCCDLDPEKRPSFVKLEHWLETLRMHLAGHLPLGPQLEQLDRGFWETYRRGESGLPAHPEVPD
Assay: kinobeads assay with mass spectrometry detection of kinases (kinase selectivity profile)
Settings: LIMK1 (TKL), IPI00291702
RECORDED_METRIC: IC50

The examples below pair each entry with its known result.
>  <SUBSTANCE_SMILES>
C[C@H]1COCCN1c1nc(-c2ccc(NC(=O)NC3CC3)cc2)cc(-c2cc(F)ccc2S(C)(=O)=O)n1

>  <IC50>
> 10 µM

$$$$
>  <SUBSTANCE_SMILES>
C[C@H]1COCCN1c1cc(-c2ccccn2)nc(-c2ccc(NC(=O)NCCO)cc2)n1

>  <IC50>
> 10 µM

$$$$
>  <SUBSTANCE_SMILES>
C[C@H]1COCCN1c1cc(-c2ccccc2S(C)(=O)=O)nc(-c2ccc(NC(=O)NC3CC3)cc2)n1

>  <IC50>
> 10 µM

$$$$
>  <SUBSTANCE_SMILES>
C[C@H]1COCCN1c1nc(-c2ccc(NC(=O)NC3CC3)cc2)cc(-c2cccnc2S(C)(=O)=O)n1

>  <IC50>
> 10 µM

$$$$
>  <SUBSTANCE_SMILES>
C[C@H]1COCCN1c1nc(-c2ccc(NC(=O)NC3CC3)cc2)cc(-c2ccccc2S(C)(=O)=O)n1

>  <IC50>
> 10 µM

$$$$
>  <SUBSTANCE_SMILES>
CCNC(=O)Nc1ccc(-c2cc(-c3ccccc3C#N)nc(N3CCOC[C@@H]3C)n2)cc1

>  <IC50>
> 10 µM

$$$$

## Task Read the entry `C[C@H]1COCCN1c1nc(-c2ccc(NC(=O)N[C@H]3CCC[C@@H]3O)cc2)cc(-c2cc(F)ccc2S(C)(=O)=O)n1` and write its reported IC50.
## Result > 10 µM

---

Target: kinases (kinome) (Homo sapiens)
Construct: determined in kinobeads assays with mass spectrometry detection of kinases as described previously; endogenous in cells
Assay: kinobeads assay with mass spectrometry detection of kinases (kinase selectivity profile)
Details: Erk5 (CMGC), IPI00910923
RECORDED_METRIC: IC50

## Task Read the entry `C[C@H]1COCCN1c1nc(-c2ccc(NC(=O)NC3CC3)cc2)cc(-c2ccccc2S(C)(=O)=O)n1` and write its reported IC50.
## Result > 10 µM

---

Listed next: entries and their corresponding pIC50.
Biological target: kinases (kinome) (Homo sapiens, UniProt Q9BZL6)
Construct: determined in kinobeads assays with mass spectrometry detection of kinases as described previously; endogenous in cells
Sequence (Q9BZL6 whole entry): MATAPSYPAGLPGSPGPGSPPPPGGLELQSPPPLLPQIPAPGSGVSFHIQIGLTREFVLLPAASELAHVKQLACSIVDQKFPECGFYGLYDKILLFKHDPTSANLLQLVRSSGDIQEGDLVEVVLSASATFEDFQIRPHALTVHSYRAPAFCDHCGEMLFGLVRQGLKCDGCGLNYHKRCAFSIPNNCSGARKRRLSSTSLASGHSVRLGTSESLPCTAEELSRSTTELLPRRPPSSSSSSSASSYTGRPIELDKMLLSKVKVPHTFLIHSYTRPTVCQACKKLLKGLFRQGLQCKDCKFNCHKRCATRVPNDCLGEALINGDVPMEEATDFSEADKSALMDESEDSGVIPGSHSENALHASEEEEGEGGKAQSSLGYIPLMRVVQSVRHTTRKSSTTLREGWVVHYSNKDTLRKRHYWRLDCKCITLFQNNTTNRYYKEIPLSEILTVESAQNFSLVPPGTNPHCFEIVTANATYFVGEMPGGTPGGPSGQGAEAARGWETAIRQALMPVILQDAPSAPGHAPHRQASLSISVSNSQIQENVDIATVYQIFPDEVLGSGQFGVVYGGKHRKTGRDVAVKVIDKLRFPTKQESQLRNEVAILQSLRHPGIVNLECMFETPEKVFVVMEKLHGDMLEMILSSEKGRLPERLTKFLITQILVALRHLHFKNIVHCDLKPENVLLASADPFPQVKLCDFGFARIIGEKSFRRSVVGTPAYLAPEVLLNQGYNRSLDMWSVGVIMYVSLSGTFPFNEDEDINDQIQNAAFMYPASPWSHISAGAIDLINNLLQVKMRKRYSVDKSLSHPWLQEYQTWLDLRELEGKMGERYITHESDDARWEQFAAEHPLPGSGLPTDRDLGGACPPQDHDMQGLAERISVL
Assay: kinobeads assay with mass spectrometry detection of kinases (kinase selectivity profile)
Settings: PKD2 (CAMK), IPI00009334
pIC50: −log10 of the molar value.

>  <MOLECULE>
C[C@H]1COCCN1c1nc(-c2ccc(NC(=O)NC3CC3)cc2)cc(-c2cc(F)ccc2S(C)(=O)=O)n1 [Example 40]

>  <pIC50>
< 5.00

$$$$

Now let's try a different one.
## Task Read the entry C[C@H]1COCCN1c1nc(-c2ccc(NC(=O)NC3CC3)cc2)cc(-c2ccccc2S(C)(=O)=O)n1 [Example 4] and write its reported pIC50.
## Result < 5.00

---

Listed next: entries and their corresponding IC50.
Molecular target: mTOR (Homo sapiens)
Construct: endogenous in cells; host or cells: Jurkat cells (ATCC TIB-152, clone E6-1), lysate
Assay: mTOR kinobeads assay (dot blot detection)
Assay type: binding
Details: Table 4, read-out: Inhibition values (IC50) mTOR

The examples below pair each entry with its known result.
>  <COMPOUND>
C[C@H]1COCCN1c1cc(-c2ccncc2F)nc(-c2ccc(NC(=O)NC3CC3)cc2)n1 [Example 24]

>  <MEASURED_VALUE>
0.1 to 1 µM

$$$$
>  <COMPOUND>
C[C@H]1COCCN1c1cc(-c2cncc(F)c2)nc(-c2ccc(NC(=O)NCCO)cc2F)n1 [Example 65]

>  <MEASURED_VALUE>
0.1 to 1 µM

$$$$
>  <COMPOUND>
COC1CC(NC(=O)Nc2ccc(-c3cc(-c4cc(F)ccc4S(C)(=O)=O)nc(N4CCOC[C@@H]4C)n3)cc2)C1 (stereo partly shown) [Example 79]

>  <MEASURED_VALUE>
1 to 10 µM

$$$$
>  <COMPOUND>
C[C@H](O)CNC(=O)Nc1ccc(-c2cc(-c3cc(F)ccc3S(C)(=O)=O)nc(N3CCOC[C@@H]3C)n2)cc1 [Example 83]

>  <MEASURED_VALUE>
0.1 to 1 µM

$$$$
>  <COMPOUND>
C[C@@H](CO)NC(=O)Nc1ccc(-c2cc(-c3cc(F)ccc3S(C)(=O)=O)nc(N3CCOC[C@@H]3C)n2)cc1 [Example 74]

>  <MEASURED_VALUE>
0.1 to 1 µM

$$$$
>  <COMPOUND>
O=C(NCCF)Nc1ccc(-c2nccc(N3CC4CCC(C3)O4)n2)cc1 [Example 52]

>  <MEASURED_VALUE>
0.1 to 1 µM

$$$$

## Task Read the entry C[C@H]1COCCN1c1ccnc(-c2ccc(NC(=O)NCCF)cc2)n1 [Example 55] and write its reported IC50.
## Result 0.1 to 1 µM

## Task Read the entry C[C@H]1COCCN1c1cc(-c2ccccn2)nc(-c2ccc(NC(=O)NCCO)cc2)n1 [Example 43] and write its reported IC50.
## Result 0.1 to 1 µM

## Task Read the entry C[C@H]1COCCN1c1nccc(-c2ccc(NC(=O)NCCO)cc2)n1 [Example 58] and write its reported IC50.
## Result 1 to 10 µM

## Task Read the entry C[C@H]1COCCN1c1nc(-c2ccc(NC(=O)NC3(CO)CCC3)cc2)cc(-c2cc(F)ccc2S(C)(=O)=O)n1 [Example 75] and write its reported IC50.
## Result 0.1 to 1 µM

## Task Read the entry CCNC(=O)Nc1ccc(-c2cc(-c3cc[nH]n3)nc(N3CCOC[C@@H]3C)n2)cc1 [Example 18] and write its reported IC50.
## Result 1 to 10 µM

## Task Read the entry C[C@@H](O)CNC(=O)Nc1ccc(-c2cc(-c3cc(F)ccc3S(C)(=O)=O)nc(N3CCOC[C@@H]3C)n2)cc1 [Example 82] and write its reported IC50.
## Result 1 to 10 µM

## Task Read the entry O=C(Nc1ccc(-c2nccc(N3CCOCC3)n2)cc1)NC1CC1 [Example 26] and write its reported IC50.
## Result 0.1 to 1 µM

## Task Read the entry C[C@H]1COCCN1c1nc(-c2ccc(NC(=O)NC(C)(C)CO)cc2)cc(-c2cc(F)ccc2S(C)(=O)=O)n1 [Example 69] and write its reported IC50.
## Result 1 to 10 µM

## Task Read the entry CCNC(=O)Nc1ccc(-c2cc(-c3cc(F)ccc3S(C)(=O)=O)nc(N3CCOC[C@@H]3C)n2)cc1 [Example 2] and write its reported IC50.
## Result 0.1 to 1 µM

## Task Read the entry CCNC(=O)Nc1ccc(-c2ccnc(N3CCOCC3)n2)cc1 [Example 29] and write its reported IC50.
## Result 0.1 to 1 µM
